- experimental_parameters: 328.15 K; 2000 kPa; Liquid
Numbers after ± are expanded uncertainties.
observable: mass density

Look up mass density of CCCOC(C)=O [propyl ethanoate] and report it.
849.9 ± 3.5 kg/m3

Look up mass density of CCCCCOC(C)=O [pentyl ethanoate] and report it.
844.4 ± 3.5 kg/m3

Look up mass density of CCCCOC(C)=O [butyl ethanoate] and report it.
846.8 ± 3.4 kg/m3

Look up mass density of CCOC(C)=O [ethyl acetate] and report it.
859.2 ± 3.4 kg/m3

====

For each entry below, report its mass density value.
- experimental_parameters: 363.15 K; 15000 kPa; Liquid
Supply the numeric figure in kg/m3, leaving out any unit text.

Look up mass density of CCOC(C)=O [ethyl acetate] and report it.
833.3

Look up mass density of CCCCOC(C)=O [butyl ethanoate] and report it.
824.9

Look up mass density of CCCCCOC(C)=O [pentyl ethanoate] and report it.
823.4

Look up mass density of CCCOC(C)=O [propyl ethanoate] and report it.
826.2

====

For each entry below, report its mass density value.
- experimental_parameters: 358.15 K; 15000 kPa; Liquid
Supply the numeric figure in kg/m3, leaving out any unit text.

Look up mass density of CCCOC(C)=O [propyl ethanoate] and report it.
831.5

Look up mass density of CCCCOC(C)=O [butyl ethanoate] and report it.
829.1

Look up mass density of CCCCCOC(C)=O [pentyl ethanoate] and report it.
827.7

Look up mass density of CCOC(C)=O [ethyl acetate] and report it.
838.9

====

For each entry below, report its mass density value.
- experimental_parameters: 328.15 K; 5000 kPa; Liquid
Supply the numeric figure in kg/m3, leaving out any unit text.

Look up mass density of CCCCOC(C)=O [butyl ethanoate] and report it.
849.7

Look up mass density of CCOC(C)=O [ethyl acetate] and report it.
862.5

Look up mass density of CCCCCOC(C)=O [pentyl ethanoate] and report it.
847.1

Look up mass density of CCCOC(C)=O [propyl ethanoate] and report it.
853.7

====

For each entry below, report its mass density value.
- experimental_parameters: 388.15 K; 10000 kPa; Liquid
Numbers after ± are expanded uncertainties.
A bare number is not enough; add the unit after it.

Look up mass density of CCCCOC(C)=O [butyl ethanoate] and report it.
795.8 ± 4.4 kg/m3

Look up mass density of CCCCCOC(C)=O [pentyl ethanoate] and report it.
796.3 ± 4.6 kg/m3

Look up mass density of CCOC(C)=O [ethyl acetate] and report it.
796.4 ± 4.4 kg/m3

Look up mass density of CCCOC(C)=O [propyl ethanoate] and report it.
793.8 ± 4.6 kg/m3

====

For each entry below, report its mass density value.
- experimental_parameters: 393.15 K; 3000 kPa; Liquid
Supply the numeric figure in kg/m3, leaving out any unit text.

Look up mass density of CCCOC(C)=O [propyl ethanoate] and report it.
775.9

Look up mass density of CCCCOC(C)=O [butyl ethanoate] and report it.
779.5

Look up mass density of CCOC(C)=O [ethyl acetate] and report it.
775.9

Look up mass density of CCCCCOC(C)=O [pentyl ethanoate] and report it.
781.9

====

- experimental_parameters: 343.15 K; 25000 kPa; Liquid
For each entry below, report its mass density value.
Supply the numeric figure in kg/m3, leaving out any unit text.

Look up mass density of CCCCOC(C)=O [butyl ethanoate] and report it.
855.1

Look up mass density of CCOC(C)=O [ethyl acetate] and report it.
868.5

Look up mass density of CCCOC(C)=O [propyl ethanoate] and report it.
859.2

Look up mass density of CCCCCOC(C)=O [pentyl ethanoate] and report it.
852.1

These data points were gathered from the NIST ThermoML archive (doi:10.1021/je060339m).
